# method_description: in vivo
# condition_description: Long-Evans, rat, brain/plasma, po, 10 mg/kg
# Description: Ratio of drug concentration in Long-Evans rat brain to plasma at 10 mg/kg, po
outcome_measure: Kp
A bare number is all that is needed in reply.

# Kp lookup, item "C[C@@H]1CCN(C(=O)c2ccc3occc3c2)C[C@H]1c1cc(C(F)F)nc2ncnn12"
0.5
